The origin of these recorded values is PubChem BioAssay (NCATS).

Tested on: UISO
Assay: qHTS assay to identify novel small-molecules to repurpose for Merkel cell carcinoma treatment (AID 1296009); further: nearly all actives have a fitted effect of over 60% in size
Details: MCC and control cell lines, CellTiter-Glo viability, 72 h; series mostly up to 46 µM
Results filed as inconclusive are left out. Activity calls are given as the source filed them. The call rests on the fitted dose curve; in most records, active means well fitted inhibition curve with a large enough effect; inconclusive means small, poorly fitted or top-dose-only effect; inactive means flat fitted curve, though single readings scatter.

molecule	target.or.test.system	outcome
CC(C)CN(C[C@@H](O)[C@H](Cc1ccccc1)NC(=O)O[C@H]1CO[C@H]2OCC[C@H]21)S(=O)(=O)c1ccc(N)cc1	UISO	inactive
CC(C)(CO)[C@@H](O)C(=O)NCCC(=O)O	UISO	inactive
CCC(=O)NCC[C@@H]1CCc2ccc3c(c21)CCO3	UISO	inactive
O=C(Nc1ccccc1)Nc1ccc(-c2ccc(C(=O)[C@H]3CCC[C@H]3C(=O)O)cc2)cc1	UISO	inactive
CCCCCOC(=O)Nc1nc(=O)n([C@@H]2O[C@H](C)[C@@H](O)C2O)cc1F (some centres undefined)	UISO	inactive
COc1cc2ncn(-c3cc(OCc4ccccc4S(C)(=O)=O)c(C#N)s3)c2cc1OC	UISO	inactive
NC(=O)c1nnn(Cc2cc(Cl)c(C(=O)c3ccc(Cl)cc3)c(Cl)c2)c1N	UISO	inactive
CCOc1ccccc1N=Nc1c(C)[nH]n(-c2nc(-c3ccccc3)cs2)c1=O	UISO	inactive
COc1nc(C)cnc1NS(=O)(=O)c1cccnc1-c1ccc(-c2nnco2)cc1	UISO	inactive

====

Test system: MKL-2
Test: qHTS assay to identify novel small-molecules to repurpose for Merkel cell carcinoma treatment (AID 1296009); further: nearly all actives have a fitted effect of over 60% in size
Conditions: MCC and control cell lines, CellTiter-Glo viability, 72 h; series mostly up to 46 µM
Records with an inconclusive call do not appear. Calls of active or inactive are those of the source. The call rests on the fitted dose curve; in most records, active means well fitted inhibition curve with a large enough effect; inconclusive means small, poorly fitted or top-dose-only effect; inactive means flat fitted curve, though single readings scatter.
Outcome codes: t = active, f = inactive

compound	cat
COc1ccc(Cn2ccc3ccc(C(=O)NO)cc32)cc1	f
CCC(C)SSc1ncc[nH]1 (centres undefined)	t
CCC(=O)N1CCN(c2ccc(-n3c(=O)ccc4cnc5ccc(-c6cnc7ccccc7c6)cc5c43)cc2C(F)(F)F)CC1	f
CCCCCOC(=O)Nc1nc(=O)n([C@@H]2O[C@H](C)[C@@H](O)C2O)cc1F (some centres undefined)	f
CC[C@H](C=C[C@@H](C)[C@H]1CC[C@H]2[C@@H]3CC=C4C[C@@H](O)CC[C@]4(C)[C@@H]3CC[C@]12C)C(C)C	f
O=C1C(c2c(O)[nH]c3ccccc23)=Nc2ccccc21	f
CC[C@]1(O)C[C@H]2CN(CCC3=c4ccccc4=N[C]3[C@@](C(=O)OC)(c3cc4c(cc3OC)N(C)[C@H]3[C@@](O)(C(N)=O)[C@H](O)[C@]5(CC)C=CCN6CC[C@]43[C@@H]65)C2)C1	t
CN1N=C(N)c2cn([C@@H]3O[C@H](COP(=O)(O)O)[C@@H](O)[C@@H]3O)c3ncnc1c23	t
O=C(O)c1ccc(O)c2ncc(N3CCOCC3)cc12	t

====

Assay: Quantitative High-Throughput drug screen in 47 multiple myeloma cell lines against the NCATS MIPE library collection: KMS21BM_JCRB cell viability assay (AID 1918974)
Details: ATP luminescence, 48 h
From the text: PI: Beverly A. Mock Ph.D. Laboratory of Cancer Biology and Genetics, Center for Cancer Research, National Cancer Institute, National Institute of Health, Bethesda, Maryland […] 5; Detector; 425V; Luminescence; Viewlux PerkinElmer. […] 1. […] Briefly, the corresponding myeloma cell lines were screened in 1,536-well plates with 500 cells, 5-uL per well for inhibition of cell viability (assessed by measuring ATP levels with CellTiterGlo). […]
Results filed as inconclusive are left out. Activity calls are given as the source filed them. The call rests on the fitted dose curve; in most records, active means well fitted cell-killing curve with a large enough effect; inconclusive means small, poorly fitted or top-dose-only effect, or effect the other way; inactive means no such curve, though single readings can be large or run the other way.
Labels: yes (1) = active, no (0) = inactive

compound	cat
COc1ccc(Cn2ccc3ccc(C(=O)NO)cc32)cc1	yes (1)
NS(=O)(=O)c1ccc(Nc2nc(OCC3CCCCC3)c3[nH]cnc3n2)cc1	yes (1)
OC1CCC(Nc2ncc3nc(Nc4c(F)cc(F)cc4F)n([C@@H]4CCOC4)c3n2)CC1 (some centres undefined)	yes (1)
CC(C)(C)c1nc(-c2cccc(NS(=O)(=O)c3c(F)cccc3F)c2F)c(-c2ccnc(N)n2)s1	yes (1)
N#CC(=C1Nc2ccccc2S1)c1ccnc(OCc2ccc(CN3CCOCC3)cc2)n1	yes (1)
CCOc1ccccc1N=Nc1c(C)[nH]n(-c2nc(-c3ccccc3)cs2)c1=O	no (0)
C[C@@H]1O[C@@H](O[C@H]2CC[C@@]3(C)[C@H](CC[C@@H]4[C@H]3C[C@@H](O)[C@]3(C)[C@@H](C5=CC(=O)OC5)CC[C@]43O)C2)C[C@H](O)[C@@H]1O[C@H]1C[C@H](O)[C@H](O[C@H]2C[C@H](O)[C@@H](O)[C@@H](C)O2)[C@H](C)O1 (stereo in doubt)	yes (1)
CC[C@H](NC(=O)[C@H](C)NC)C(=O)N1C[C@@H](O)C[C@H]1Cc1c(-c2[nH]c3cc(F)ccc3c2C[C@H]2C[C@H](O)CN2C(=O)[C@H](CC)NC(=O)[C@H](C)NC)[nH]c2cc(F)ccc12	yes (1)
CCN1C[C@H](C)n2c(c(O)c3c(=O)n(Cc4ccc(F)c(Cl)c4)nc(C(=O)NC)c32)C1=O	no (0)
O=c1[nH]nc(OCCCc2ccc(Cl)cc2)c(NCc2cccnc2)c1Br	yes (1)
CCc1cccc(CC)c1NC(=O)N1Cc2[nH]nc(NC(=O)c3ccc(N4CCN(C)CC4)cc3)c2C1	yes (1)
COc1cc(N2CCN(C)CC2)ccc1Nc1nc(N)c(C(=O)c2c(Cl)cccc2Cl)s1	yes (1)
CC(C)Oc1cc(Nc2nc(N[C@@H](C)c3ccc(F)cn3)ncc2Cl)[nH]n1	yes (1)
O=c1cc(-c2ccc(O)c(O)c2)oc2cc(O)cc(O)c12	yes (1)
CCC(C)SSc1ncc[nH]1 (centres undefined)	yes (1)
CC1(C)OC2CC3C4CC(F)C5=CC(=O)C=CC5(C)C4C(O)CC3(C)[C@]2(C(=O)CO)O1 (some centres undefined)	yes (1)
NC(=O)c1ncn([C@@H]2O[C@H](CO)[C@@H](O)[C@@H]2O)n1	no (0)
COc1cc2nc(-c3cc(F)ccc3O)nc(N[C@@H]3CNC[C@@H]3C(C)(C)O)c2cc1OC	yes (1)
Cc1cc(CS(=O)(=O)c2ccccc2)cc(OCc2ccc(CN3CCC[C@H]3CO)cc2)c1	yes (1)
CCC(=O)N1CCN(c2ccc(-n3c(=O)ccc4cnc5ccc(-c6cnc7ccccc7c6)cc5c43)cc2C(F)(F)F)CC1	yes (1)
N#CC(c1ccc(Cl)cc1)c1c(Cl)cc(-n2ncc(=O)[nH]c2=O)cc1Cl (centres undefined)	yes (1)
CN1CCN(c2cccc(Nc3nc4c(-c5ccc(S(C)(=O)=O)cc5)cccn4n3)c2)CC1	yes (1)
CC[C@]1(O)C[C@H]2CN(CCC3=c4ccccc4=N[C]3[C@@](C(=O)OC)(c3cc4c(cc3OC)N(C)[C@H]3[C@@](O)(C(N)=O)[C@H](O)[C@]5(CC)C=CCN6CC[C@]43[C@@H]65)C2)C1	yes (1)
CN(C)CCOc1ccc(-c2nc(-c3ccc4c(c3)CCC4=NO)c(-c3ccncc3)[nH]2)cc1	yes (1)
